# MEASURED_ON: T1, human GPC3-his tag protein (human, UniProt P51654 25-559, limits assumed)
# T1 construct: recombinant soluble antigen used as analyte in all Biacore runs; also called recombinant GPC3 protein; rhGPC3-His; not shown: His tag
# PROTOCOL: SPR Biacore 8K, mAb captured, affinity ranking
READOUT: kon (M⁻¹ s⁻¹)

{"BINDER": "52H5D3B8-6#-VH1+VL4 (antibody, V domains shown, humanized) VH: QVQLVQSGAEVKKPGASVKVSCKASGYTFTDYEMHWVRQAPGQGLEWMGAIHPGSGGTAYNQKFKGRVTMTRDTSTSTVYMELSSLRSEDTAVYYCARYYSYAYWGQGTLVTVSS VL: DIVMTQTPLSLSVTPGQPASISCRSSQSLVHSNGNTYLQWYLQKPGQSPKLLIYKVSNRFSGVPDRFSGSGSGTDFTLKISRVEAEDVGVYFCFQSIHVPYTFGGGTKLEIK", "READOUT": "kon", "NUMERIC_READOUT": 546000}

Attribution: patent US20240409663A1
